# assaySystem: human recombinant KDM1A (LSD1)/CoRest (Homo sapiens)
# Construct: made in house; host or cells: E. coli
# testDetails: Assay of enzyme inhibition of KDM1A (LSD1), Amplex UltraRed/peroxidase coupled
# Type: biochemical
# runParameters: 15 min preincubation, 4.5 μM mono-methylated H3-K4 peptide, range classes, read-out: IC50 [μM], KDM1A inhibition assay
Where a name gives a salt, the structure may show the parent alone.
observable: IC50

Query :: State, for human recombinant KDM1A (LSD1)/CoRest (Homo sapiens), measured IC50 of the compound listed here: CN1CCN(C(=O)CN[C@]2(C)C[C@H]2c2ccccc2)CC1 [Example C-25, trifluoroacetic acid]
Result :: < 0.1 µM

Query :: State, for human recombinant KDM1A (LSD1)/CoRest (Homo sapiens), measured IC50 of the compound listed here: CN1CCN(C(=O)CN[C@]2(C)C[C@H]2c2ccccc2)CC1 (relative stereo) [Example C-27, dihydrochloride]
Result :: < 0.1 µM

Query :: State, for human recombinant KDM1A (LSD1)/CoRest (Homo sapiens), measured IC50 of the compound listed here: CC[C@@]1(N)C[C@H]1c1ccc(Br)cc1 (relative stereo) [Example A-12, hydrochloride]
Result :: 0.1 to 1 µM

Query :: State, for human recombinant KDM1A (LSD1)/CoRest (Homo sapiens), measured IC50 of the compound listed here: N[C@]1(c2ccccc2)C[C@H]1c1ccc(NC(=O)c2ccc(-c3ccccc3)cc2)cc1 (relative stereo) [Example A-89]
Result :: < 0.1 µM

Query :: State, for human recombinant KDM1A (LSD1)/CoRest (Homo sapiens), measured IC50 of the compound listed here: CC[C@@]1(N)C[C@H]1c1ccc(NC(=O)Cc2ccc([N+](=O)[O-])cc2)cc1 (relative stereo) [Example A-69, hydrochloride]
Result :: < 0.1 µM

Query :: State, for human recombinant KDM1A (LSD1)/CoRest (Homo sapiens), measured IC50 of the compound listed here: CC[C@@]1(N)C[C@H]1c1ccc(Cl)cc1 (relative stereo) [Example A-17, hydrochloride]
Result :: 0.1 to 1 µM

Query :: State, for human recombinant KDM1A (LSD1)/CoRest (Homo sapiens), measured IC50 of the compound listed here: CC[C@@]1(N)C[C@H]1c1ccc(NC(=O)c2ccc(N3CCN(C)CC3)cc2)cc1 (relative stereo) [Example A-97]
Result :: < 0.1 µM
